Target: 3β-hydroxysterol-Δ(24)-reductase (DHCR24) (Homo sapiens, UniProt Q15392)
Construct: DHCR24 immunoprecipitated from HepG2 cells infected with Ad-cmv-DHCR24 (antibody-DHCR24 complex)
Sequence (Q15392 23-516, stated change not applied): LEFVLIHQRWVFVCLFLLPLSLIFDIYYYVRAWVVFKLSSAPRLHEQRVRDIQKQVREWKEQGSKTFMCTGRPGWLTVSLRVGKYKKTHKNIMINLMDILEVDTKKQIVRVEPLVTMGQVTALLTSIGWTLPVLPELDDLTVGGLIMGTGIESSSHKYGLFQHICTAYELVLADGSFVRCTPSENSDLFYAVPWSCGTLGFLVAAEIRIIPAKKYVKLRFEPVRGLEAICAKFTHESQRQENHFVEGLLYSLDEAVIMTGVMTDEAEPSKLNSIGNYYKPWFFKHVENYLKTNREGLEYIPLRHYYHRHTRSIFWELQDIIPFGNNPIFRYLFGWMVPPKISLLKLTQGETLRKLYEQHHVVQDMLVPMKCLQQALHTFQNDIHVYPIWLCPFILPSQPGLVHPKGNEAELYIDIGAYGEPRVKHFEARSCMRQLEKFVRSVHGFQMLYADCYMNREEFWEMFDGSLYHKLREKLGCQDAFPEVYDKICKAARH
Assay: immune complex-activity assay; HPLC of desmosterol to cholesterol conversion
outcome measure: IC50 (nM)
Respond with the bare value in nM.

For reference, reported IC50 for CCCCC1=NC2(CCCC2)C(=O)N1Cc1ccc(-c2ccccc2-c2nnn[nH]2)cc1 [IRB, Irbesartan] stands at 602
